- Test system: Nucleic Acid
- PROCEDURE_TEXT: Inhibition of A73U tRNA(Tyr)-5'Rhd-AM1A T box antiterminator RNA complex assessed as reduction in anisotrophy changes by at 100 uM by fluorescence anisotropy-based assay relative to untreated control
- Assay type: nucleic-acid assay
Would you please tag the item Satisfied when its inhibition is 10% or above, and Not satisfied when it is below?

{"COMPOUND": "CCCCNC(=O)OCC(O)Cn1cc(CN(C)CCC(C)C)nn1 (configuration not stated)", "ASSIGNED_LABEL": "Satisfied"}
{"COMPOUND": "CCCCC(O)Cn1cc(CN(C)CCC(C)C)nn1 (configuration not stated)", "ASSIGNED_LABEL": "Satisfied"}
{"COMPOUND": "O=C(COc1ccccc1)OC1CCCCC1n1cc(CN2CCN(c3ccccc3)CC2)nn1 (configuration not stated)", "ASSIGNED_LABEL": "Satisfied"}
{"COMPOUND": "CN(Cc1cn(CC(O)COC(=O)c2ccccc2)nn1)CC1CCCCC1 (configuration not stated)", "ASSIGNED_LABEL": "Not satisfied"}
{"COMPOUND": "CCCCC(O)Cn1cc(CN2CCC(c3ccccc3)CC2)nn1 (configuration not stated)", "ASSIGNED_LABEL": "Satisfied"}
{"COMPOUND": "CCOC(=O)C1CCCN(Cc2cn(CC(O)COC(=O)NCc3ccccc3)nn2)C1 (configuration not stated)", "ASSIGNED_LABEL": "Satisfied"}
{"COMPOUND": "CC(C)CCN(C)Cc1cn(CC(O)COC(=O)C2CCCCC2)nn1 (configuration not stated)", "ASSIGNED_LABEL": "Not satisfied"}
{"COMPOUND": "O=C(NCc1ccccc1)OCC(O)Cn1cc(CN2CCN(c3ccccc3)CC2)nn1 (configuration not stated)", "ASSIGNED_LABEL": "Satisfied"}
{"COMPOUND": "CCCCCCCC(=O)OCC(O)Cn1cc(CN(C)CCCc2ccccc2)nn1 (configuration not stated)", "ASSIGNED_LABEL": "Satisfied"}
{"COMPOUND": "CN(Cc1cn(CC(O)COCc2ccccc2)nn1)CC1CCCCC1 (configuration not stated)", "ASSIGNED_LABEL": "Not satisfied"}
{"COMPOUND": "O=C(OC1CCCCC1n1cc(CN2CCN(c3ccccc3)CC2)nn1)c1ccccc1 (configuration not stated)", "ASSIGNED_LABEL": "Satisfied"}
{"COMPOUND": "CCCCC(O)Cn1cc(CN(C)CCCc2ccccc2)nn1 (configuration not stated)", "ASSIGNED_LABEL": "Satisfied"}
{"COMPOUND": "CN(Cc1cn(C2CCCCC2OC(=O)Cc2ccccc2)nn1)CC1CCCCC1 (configuration not stated)", "ASSIGNED_LABEL": "Not satisfied"}
{"COMPOUND": "CCCCN(CCCC)Cc1cn(CC(O)COC(=O)c2ccccc2)nn1 (configuration not stated)", "ASSIGNED_LABEL": "Satisfied"}
{"COMPOUND": "CCCCN(CCCC)Cc1cn(CC(O)COC(=O)C2CCCCC2)nn1 (configuration not stated)", "ASSIGNED_LABEL": "Satisfied"}
{"COMPOUND": "OC(Cn1cc(CN2CCN(c3ccccc3)CC2)nn1)c1ccccc1 (configuration not stated)", "ASSIGNED_LABEL": "Satisfied"}
{"COMPOUND": "CC(C)CCN(C)Cc1cn(C2CCCCC2OC(=O)COc2ccccc2)nn1 (configuration not stated)", "ASSIGNED_LABEL": "Satisfied"}
{"COMPOUND": "CCCCN(CCCC)Cc1cn(C2CCCCC2OC(=O)Cc2ccccc2)nn1 (configuration not stated)", "ASSIGNED_LABEL": "Satisfied"}
{"COMPOUND": "CC(C)CCN(C)Cc1cn(CC(O)COC(=O)c2ccccc2)nn1 (configuration not stated)", "ASSIGNED_LABEL": "Not satisfied"}
{"COMPOUND": "CCOC(=O)C1CCCN(Cc2cn(C3CCCCC3OC(=O)COc3ccccc3)nn2)C1 (configuration not stated)", "ASSIGNED_LABEL": "Satisfied"}
{"COMPOUND": "CCOC(=O)C1CCCN(Cc2cn(CC(O)COC(=O)c3ccccc3)nn2)C1 (configuration not stated)", "ASSIGNED_LABEL": "Not satisfied"}
{"COMPOUND": "O=C(OCC(O)Cn1cc(CN2CCN(c3ccccc3)CC2)nn1)c1ccccc1 (configuration not stated)", "ASSIGNED_LABEL": "Satisfied"}
